- test system: hCA II (Homo sapiens, UniProt P00918)
readout: Ki (µM)
Quick note: give the figure in µM, leave out the unit.

{"test smiles": "COc1cc(/C=C/C(=O)OCCCN(C)CCCCCOC(=O)c2ccc(S(N)(=O)=O)cc2)cc(OC)c1OC", "test system": "hCA II (Homo sapiens, UniProt P00918)", "Ki (µM)": 0.555}

--- query ---
Query: Can you look up the measured Ki of COc1cc(/C=C/C(=O)OCCCN(C)CCCOC(=O)c2ccc(S(N)(=O)=O)cc2)cc(OC)c1OC for me?
Reply: 0.152

* * *

Each record here notes measured pKi.
- test system: hCA IX (Homo sapiens, UniProt Q16790)
Friendly reminder that pKi comes from taking -log10 of the concentration in mol/L.

Study these solved cases before continuing.
{"test smiles": "COc1cc(C(=O)OCCCCCCN(C)CCCOC(=O)c2ccc(S(N)(=O)=O)cc2)cc(OC)c1OC", "pKi": 7.60}
{"test smiles": "COc1cc(/C=C/C(=O)OCCCCCN(C)CCCCCOC(=O)c2ccc(S(N)(=O)=O)cc2)cc(OC)c1OC", "pKi": 6.64}
{"test smiles": "COc1cc(C(=O)OCCCCCCCN(C)CCOC(=O)COc2ccc3ccc(=O)oc3c2)cc(OC)c1OC", "pKi": 7.01}
{"test smiles": "COc1cc(/C=C/C(=O)OCCCCCCCN(C)CCCCCCCOC(=O)COc2ccc3ccc(=O)oc3c2)cc(OC)c1OC", "pKi": 7.62}
{"test smiles": "COc1cc(/C=C/C(=O)OCCCN(C)CCCOC(=O)c2ccc(S(N)(=O)=O)cc2)cc(OC)c1OC", "pKi": 6.75}

Query: Can you look up the measured pKi of COc1cc(/C=C/C(=O)OCCCCCCCN(C)CCOC(=O)COc2ccc3ccc(=O)oc3c2)cc(OC)c1OC for me?
Reply: 7.53

Query: Can you handle CN(CCCCCCOC(=O)c1c2ccccc2cc2ccccc12)CCCOC(=O)c1ccc(S(N)(=O)=O)cc1 next?
Reply: 7.55

* * *

- test system: hCA II (Homo sapiens)
pKi: −log10 of the molar value.
Each record here notes measured pKi.

Study these solved cases before continuing.
{"molecule": "COc1cc(C(=O)OCCCN(C)CCCCCOC(=O)c2ccc(S(N)(=O)=O)cc2)cc(OC)c1OC [Compound 23]", "result": 6.89}
{"molecule": "CN(CCCCCOC(=O)COc1ccc2ccc(=O)oc2c1)CCCOC(=O)c1c2ccccc2cc2ccccc12 [Compound 12]", "result": "< 5.00"}
{"molecule": "CN(CCCCCCCOC(=O)c1c2ccccc2cc2ccccc12)CCOC(=O)c1ccc(S(N)(=O)=O)cc1 [Compound 28]", "result": 6.32}
{"molecule": "CN(CCCCCCCOC(=O)c1c2ccccc2cc2ccccc12)CCOC(=O)COc1ccc2ccc(=O)oc2c1 [Compound 14]", "result": "< 5.00"}
{"molecule": "COc1cc(/C=C/C(=O)OCCCCCN(C)CCCCCOC(=O)COc2ccc3ccc(=O)oc3c2)cc(OC)c1OC [Compound 4]", "result": "< 5.00"}

Query: Can you look up the measured pKi of COc1cc(/C=C/C(=O)OCCCCCN(C)CCCOC(=O)c2ccc(S(N)(=O)=O)cc2)cc(OC)c1OC [Compound 17] for me?
Reply: 6.69

Query: Can you handle COc1cc(/C=C/C(=O)OCCCN(C)CCCCCOC(=O)COc2ccc3ccc(=O)oc3c2)cc(OC)c1OC [Compound 2] next?
Reply: < 5.00

Query: Can you handle COc1cc(/C=C/C(=O)OCCCCCCN(C)CCCOC(=O)COc2ccc3ccc(=O)oc3c2)cc(OC)c1OC [Compound 5] next?
Reply: < 5.00
